Consider the following compounds; for each one, report its IC50.

Problem: Under TrkA kinase (Homo sapiens): IC50 value of CCOc1ccc(Nc2ccc(C(=O)c3c[nH]c4ncnc(C)c34)c(F)n2)cn1 [Compound P-4032] ?
Solution: < 100 nM

Problem: I'm curious: which IC50 was measured for COc1ccccc1Nc1ncc(Cc2c[nH]c3ncc(Cl)cc23)cn1 [Compound P-3016] tested on TrkA kinase (Homo sapiens)?
Solution: > 1000 nM

Problem: # get_value(readout= IC50, system= TrkA kinase (Homo sapiens)) for CCOc1ccc(Nc2ccc(C(=O)c3c[nH]c4ncnc(C5CC5)c34)c(F)n2)cn1 [Compound P-4027]
Solution: < 10 nM

Problem: Requested read-out IC50, target or system TrkA kinase (Homo sapiens), entry CCOc1ccc(Nc2ccc(C(=O)c3c[nH]c4ncc(C)cc34)c(F)n2)cn1 [Compound P-3045]
Solution: < 10 nM

Problem: I'm curious: which IC50 was measured for CSc1ccc(Nc2ncc(Cc3c[nH]c4ncc(C)cc34)cn2)cc1 [Compound P-3033] tested on TrkA kinase (Homo sapiens)?
Solution: < 10 nM

Problem: Param readout = IC50; param system = TrkA kinase (Homo sapiens); param query = CCn1ccc(Nc2ncc(Cc3c[nH]c4ncc(C)cc34)cn2)n1 [Compound P-3035] ; response: value
Sequence (P04629 33-796): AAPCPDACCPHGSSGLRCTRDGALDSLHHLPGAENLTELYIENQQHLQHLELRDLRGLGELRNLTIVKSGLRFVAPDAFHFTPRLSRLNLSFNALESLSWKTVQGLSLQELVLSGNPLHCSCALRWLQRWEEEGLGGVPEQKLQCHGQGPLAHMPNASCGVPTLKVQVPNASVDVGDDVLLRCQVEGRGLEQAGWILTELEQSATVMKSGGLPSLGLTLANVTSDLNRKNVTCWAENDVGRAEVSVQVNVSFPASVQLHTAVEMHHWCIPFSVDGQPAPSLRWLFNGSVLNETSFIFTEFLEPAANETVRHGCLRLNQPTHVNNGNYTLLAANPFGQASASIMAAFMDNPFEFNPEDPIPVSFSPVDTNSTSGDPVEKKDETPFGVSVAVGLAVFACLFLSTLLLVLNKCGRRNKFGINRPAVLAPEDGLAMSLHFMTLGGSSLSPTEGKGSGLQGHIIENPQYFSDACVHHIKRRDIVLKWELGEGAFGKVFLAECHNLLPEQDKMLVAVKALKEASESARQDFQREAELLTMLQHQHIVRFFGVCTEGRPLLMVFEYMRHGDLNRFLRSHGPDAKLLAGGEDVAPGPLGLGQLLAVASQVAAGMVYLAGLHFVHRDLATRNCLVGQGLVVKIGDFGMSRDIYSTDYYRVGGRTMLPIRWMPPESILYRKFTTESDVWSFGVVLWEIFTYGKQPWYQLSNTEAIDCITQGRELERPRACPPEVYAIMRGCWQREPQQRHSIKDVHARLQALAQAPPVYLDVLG
Solution: < 1000 nM

Problem: Form field: IC50 recorded for O=C(c1ccc(Nc2ccc(C3CC3)nc2)nc1F)c1c[nH]c2ncnc(C3CC3)c12 [Compound P-4040] with TrkA kinase (Homo sapiens) (enter value)
Solution: < 10 nM

Problem: Give recorded IC50 with TrkA kinase (Homo sapiens) for the following compound: CCc1ccc(Nc2ncc(Cc3c[nH]c4ncc(C)cc34)cn2)cc1 [Compound P-3025]
Solution: < 100 nM

Problem: What IC50 appears in the records for this compound with TrkA kinase (Homo sapiens)? CCNc1ncnc2[nH]cc(C(=O)c3ccc(Nc4ccc(C5CC5)nc4)nc3F)c12 [Compound P-4060]
Solution: < 10 nM

Problem: Field: IC50 (TrkA kinase (Homo sapiens)). Entry: COc1ccc(Nc2ccc(C(=O)c3c[nH]c4ncnc(NC5CC5)c34)c(F)n2)cn1 [Compound P-4126]
Solution: < 10 nM

Problem: What measured IC50 is associated with COc1ccc(Nc2ccc(C(=O)c3c[nH]c4ncnc(NCC(F)(F)F)c34)c(F)n2)cn1 [Compound P-4084] on TrkA kinase (Homo sapiens)?
Solution: < 10 nM

Problem: API: value(readout=IC50, system=TrkA kinase (Homo sapiens)) for record Cc1ccc(Nc2ccc(C(=O)c3c[nH]c4ncc(Cl)cc34)c(F)n2)cn1 [Compound P-3044]
Solution: < 100 nM

Problem: // map Cc1cncc(Nc2ccc(Cc3c[nH]c4ncnc(C5CC5)c34)c(F)n2)c1 [Compound P-4038] to recorded IC50 (system: TrkA kinase (Homo sapiens))
Solution: < 100 nM

Problem: // map CNc1ncnc2[nH]cc(C(=O)c3ccc(Nc4ccc(C)nc4)nc3F)c12 [Compound P-4115] to recorded IC50 (system: TrkA kinase (Homo sapiens))
Solution: < 10 nM

Problem: Lab request: please report IC50 under test system TrkA kinase (Homo sapiens) for Fc1ccccc1Nc1ncc(Cc2c[nH]c3ncc(Cl)cc23)cn1 [Compound P-3014]
Solution: > 1000 nM

Problem: Request: IC50, test system TrkA kinase (Homo sapiens), entry Nc1ncnc2[nH]cc(C(=O)c3ccc(Nc4ccc(C5CC5)nc4)nc3F)c12 [Compound P-4048]
Solution: < 10 nM

Problem: Quick check: IC50 on TrkA kinase (Homo sapiens), item CCOc1ccc(Nc2ncc(Cc3c[nH]c4ncc(C)cc34)cn2)cc1 [Compound P-3026] ?
Solution: > 1000 nM

Problem: Lab note: need IC50 for CCc1ccc(Nc2ccc(C(=O)c3c[nH]c4ncnc(NCC(C)C)c34)c(F)n2)cn1 [Compound P-4121] on TrkA kinase (Homo sapiens), anyone have it?
Solution: < 100 nM

Problem: Provide value of IC50 for this record tested with TrkA kinase (Homo sapiens): O=C(c1ccc(NC2CCC(F)(F)CC2)nc1Cl)c1c[nH]c2ncnc(NCC(F)(F)F)c12 [Compound P-4057]
Solution: < 1000 nM

Problem: Fill in the recorded IC50 for this compound, with TrkA kinase (Homo sapiens) as test system: COCCCNc1ncnc2[nH]cc(C(=O)c3ccc(Nc4ccc(OC)nc4)nc3F)c12 [Compound P-4079]
Solution: < 10 nM

Problem: Query the reported IC50 for TrkA kinase (Homo sapiens); item: CNc1ncnc2[nH]cc(C(=O)c3ccc(NC4CCC(F)(F)CC4)nc3)c12 [Compound P-4089]
Solution: < 100 nM

Problem: Please state recorded IC50 (tested on TrkA kinase (Homo sapiens)) of COc1ccc(Nc2ncc(Cc3c[nH]c4ncc(C)cc34)cn2)cn1 [Compound P-3020]
Solution: < 100 nM

Problem: Identify the measured IC50 of Fc1nc(Nc2ccc(C3CC3)nc2)ccc1Cc1c[nH]c2ncnc(C3CC3)c12 [Compound P-4041] for TrkA kinase (Homo sapiens).
Solution: < 10 nM
